# system.tested: EGFR-L858R/T790M/C797S (Homo sapiens, UniProt P00533, C797S/L858R/T790M)
# Construct: expressed in transfected cells; host or cells: H1975-clone #25 (lentiviral over-expression, endogenous EGFR knocked out)
# Sequence (P00533 25-1210 T790M/C797S/L858R): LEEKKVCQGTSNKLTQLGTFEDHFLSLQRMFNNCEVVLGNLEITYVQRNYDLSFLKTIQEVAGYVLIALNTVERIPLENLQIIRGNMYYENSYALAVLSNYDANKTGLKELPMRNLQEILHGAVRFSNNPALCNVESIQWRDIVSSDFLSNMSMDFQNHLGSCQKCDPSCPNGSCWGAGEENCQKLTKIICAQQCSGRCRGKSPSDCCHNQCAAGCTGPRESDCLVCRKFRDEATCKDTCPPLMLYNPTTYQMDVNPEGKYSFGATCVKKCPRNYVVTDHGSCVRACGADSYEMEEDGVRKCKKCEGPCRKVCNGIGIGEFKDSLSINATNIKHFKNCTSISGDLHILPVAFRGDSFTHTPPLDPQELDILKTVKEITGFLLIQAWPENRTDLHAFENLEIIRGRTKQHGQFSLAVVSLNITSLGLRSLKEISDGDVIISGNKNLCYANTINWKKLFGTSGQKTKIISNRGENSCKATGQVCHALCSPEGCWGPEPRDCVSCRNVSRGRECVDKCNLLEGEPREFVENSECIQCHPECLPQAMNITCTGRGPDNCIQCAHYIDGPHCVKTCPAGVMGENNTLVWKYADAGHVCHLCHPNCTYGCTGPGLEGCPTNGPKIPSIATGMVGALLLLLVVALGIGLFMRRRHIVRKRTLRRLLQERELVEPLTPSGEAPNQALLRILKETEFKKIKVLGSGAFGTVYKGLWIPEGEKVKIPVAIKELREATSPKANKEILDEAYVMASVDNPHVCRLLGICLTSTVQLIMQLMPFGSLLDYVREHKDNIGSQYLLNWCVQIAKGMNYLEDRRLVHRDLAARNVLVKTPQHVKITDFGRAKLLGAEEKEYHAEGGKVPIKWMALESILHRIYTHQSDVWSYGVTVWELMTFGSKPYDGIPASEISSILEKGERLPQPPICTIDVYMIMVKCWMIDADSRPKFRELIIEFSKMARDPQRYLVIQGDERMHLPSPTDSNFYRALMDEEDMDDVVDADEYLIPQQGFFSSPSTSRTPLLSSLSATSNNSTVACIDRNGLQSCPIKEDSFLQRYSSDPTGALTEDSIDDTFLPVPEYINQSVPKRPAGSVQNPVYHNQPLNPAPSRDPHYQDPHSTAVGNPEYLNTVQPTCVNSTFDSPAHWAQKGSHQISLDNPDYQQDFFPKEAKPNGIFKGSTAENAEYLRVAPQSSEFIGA
# measurement.protocol: EGFR degradation HTRF assay in H1975-clone #25 cells
# Type: cell-based
# cond: NCI-H1975, H1975-clone #25 (L858R/T790M/C797S) cells, 16 h treatment, maximum percentage of inhibition (degradation), read-out: Dmax (%) H1975 # 25-LTC
Threshold check on Dmax: at or above 90% gives YES, strictly below gives NO.

1. CCc1cc(Nc2ncc(Br)c(Nc3ccc4nc(C)c(F)cc4c3P(C)(C)=O)n2)c(OC)cc1N1CCC(N2CC3(CN(c4cc(F)c([C@H]5CCC(=O)NC5=O)c(F)c4)C3)C2)CC1 [Example 60]: YES
2. CCc1cc(Nc2ncc(Cl)c(Nc3ccc4nc(C)c(F)cc4c3P(C)(C)=O)n2)c(OC)cc1N1CC2(C1)CN(C1CCN(c3cc(F)c([C@H]4CCC(=O)NC4=O)c(F)c3)CC1)C2 [Example 61]: YES
3. CCc1cc(Nc2ncc(Cl)c(Nc3ccc4nc(C)c(F)cc4c3P(C)(C)=O)n2)c(OC)cc1N1CC2(CN(CC3CN(c4cc(F)c([C@H]5CCC(=O)NC5=O)c(F)c4)C3)C2)C1 [Example 78]: NO

Determine whether measured Dmax meets or exceeds 90% for CCc1ccc2c(P(C)(C)=O)c(Nc3nc(Nc4cc(C)c(N5CCC6(CCN(CCc7cccc8c7n(C)c(=O)n8C7CCC(=O)NC7=O)CC6)CC5)cc4OC)ncc3Br)ccc2n1 (centres unmarked) [Example 68]
NO

====

Dmax (%) H1975 # 28 DTC values, listed per item
# Test system: EGFR-Del19/T790M/C797S
# measurement.protocol: EGFR degradation HTRF assay in H1975-clone #28 cells
# Type: cell-based
# cond: H1975-clone #28 (Del19/T790M/C797S) cells, 16 h treatment, maximum percentage of inhibition (degradation)
# Method: H1975-clone #28(Del19/T790M/C797S) and H1975-clone #25(L858R/T790M/C797S). EGFR-Del19/T790M/C797S and EGFR-L858R/T790M/C797S were stably expressed in H1975 cell lines by lentivirus-mediated over-expression, respectively. The EGFR over-expressed cells then underwent knockout, in which the EGFR targeting sgRNA was designed to only target the endogenous EGFR copies and preserve the exogenous EGFR copies. […] The inhibition (degradation) percentage of the compound was calculated by the following equation: […]
Write your answer as a measured quantity: the number, then the unit.

Examples with their reported Dmax (%) H1975 # 28 DTC follow.
1. COc1cc(N2CCC3(CCN(CC4CCN(c5ccc6c(c5)CN(C5CCC(=O)NC5=O)C6=O)CC4)CC3)CC2)c(C)cc1Nc1ncc(Br)c(Nc2ccc3nc(C)ccc3c2P(C)(C)=O)n1 (stereo not drawn): 82%
2. CCOc1cc(N2CCC(N3CC4(CCN(c5cc(F)c([C@H]6CCC(=O)NC6=O)c(F)c5)CC4)C3)CC2)c(CC)cc1Nc1ncc(Cl)c(Nc2ccc3nc(C)c(F)cc3c2P(C)(C)=O)n1: 87%

Look up Dmax (%) H1975 # 28 DTC: CCc1ccc2c(P(C)(C)=O)c(Nc3nc(Nc4cc(CC)c(N5CCC(N6CC7(CN(c8cc(F)c([C@H]9CCC(=O)NC9=O)c(F)c8)C7)C6)CC5)cc4OC)ncc3Br)ccc2n1 (single isomer, unassigned)
91%

====

# system.tested: EGFR-L858R/T790M/C797S (Homo sapiens, UniProt P00533, C797S/L858R/T790M)
# Construct: expressed in transfected cells; host or cells: H1975-clone #25 (lentiviral over-expression, endogenous EGFR knocked out)
# measurement.protocol: EGFR degradation HTRF assay in H1975-clone #25 cells
# Assay type: cell-based
# cond: H1975-clone #25 (L858R/T790M/C797S) cells, 16 h treatment, IC50 (DC50), read-out: DC50(nM) H1975 # 25-LTC
measurement.label: DC50 (nM)
// return numeric value only (unit: nM, not printed)

Examples with their reported DC50 follow.
1) COc1cc(N2CCC3(CCN(CC4CCN(c5ccc6c(c5)CN(C5CCC(=O)NC5=O)C6=O)CC4)CC3)CC2)c(C)cc1Nc1ncc(Br)c(Nc2ccc3nc(C)ccc3c2P(C)(C)=O)n1 (stereo not shown): 2
2) CCc1cc(Nc2ncc(Br)c(Nc3ccc4nc(C)c(F)cc4c3P(C)(C)=O)n2)c(OC)cc1N1CCC(N2CCN(C3CN(c4cc(F)c([C@H]5CCC(=O)NC5=O)c(F)c4)C3)CC2)CC1: 1.6
3) CCc1cc(Nc2ncc(Cl)c(Nc3ccc4nc(C)c(F)cc4c3P(C)(C)=O)n2)c(OC)cc1N1CC2(C1)CN(C1CCN(c3cc(F)c([C@H]4CCC(=O)NC4=O)c(F)c3)CC1)C2: 1.2
4) CCc1cc(Nc2ncc(Br)c(Nc3ccc4nc(C)c(F)cc4c3P(C)(C)=O)n2)c(OC)cc1N1CCC2(CCN(CCNc3cc(F)c([C@H]4CCC(=O)NC4=O)c(F)c3)CC2)CC1 (single isomer, unassigned): 4.6
5) CCOc1cc(N2CCC(N3CCN(C4CCN(c5cc(F)c([C@H]6CCC(=O)NC6=O)c(F)c5)CC4)CC3)CC2)c(CC)cc1Nc1ncc(Cl)c(Nc2ccc3nc(C)c(F)cc3c2P(C)(C)=O)n1: 3.6

Look up DC50: CCc1ncc2c(P(C)(C)=O)c(Nc3nc(Nc4cc(CC)c(N5CCC(N6CC(CN7CCC(c8cc(F)c([C@H]9CCC(=O)NC9=O)c(F)c8)CC7)C6)CC5)cc4OC)ncc3Br)ccc2n1
2.4

Look up DC50: CCc1cc(Nc2ncc(Br)c(Nc3ccc4nc(C)c(F)cc4c3P(C)(C)=O)n2)c(OC)cc1N1CCC2(CC1)CCN(C1CCN(c3cccc4c3C(C)(C)C(=O)N4C3CCC(=O)NC3=O)CC1)CC2 (stereo not shown)
3.8

====

Dmax (%) H1975 # 28 DTC values, listed per item
# Test system: EGFR-Del19/T790M/C797S
# measurement.protocol: EGFR degradation HTRF assay in H1975-clone #28 cells
# Type: cell-based
# cond: H1975-clone #28 (Del19/T790M/C797S) cells, 16 h treatment, maximum percentage of inhibition (degradation)
# Description: H1975-clone #28(Del19/T790M/C797S) and H1975-clone #25(L858R/T790M/C797S). EGFR-Del19/T790M/C797S and EGFR-L858R/T790M/C797S were stably expressed in H1975 cell lines by lentivirus-mediated over-expression, respectively. The EGFR over-expressed cells then underwent knockout, in which the EGFR targeting sgRNA was designed to only target the endogenous EGFR copies and preserve the exogenous EGFR copies. […] The inhibition (degradation) percentage of the compound was calculated by the following equation: […]
Write your answer as a measured quantity: the number, then the unit.

1) COc1cc(N2CCC3(CC2)CCN(C2CCN(c4cc(F)c([C@H]5CCC(=O)NC5=O)c(F)c4)CC2)CC3)c(C)cc1Nc1ncc(Br)c(Nc2ccc3nc(C)ncc3c2P(C)(C)=O)n1 [Example 66]: 91%
2) CCc1cc(Nc2ncc(Cl)c(Nc3ccc4nc(C)c(F)cc4c3P(C)(C)=O)n2)c(OC)cc1N1CC2(CN(CC3CN(c4cc(F)c([C@H]5CCC(=O)NC5=O)c(F)c4)C3)C2)C1 [Example 78]: 90%
3) CCc1cc(Nc2ncc(Br)c(Nc3ccc4nc(C)c(F)cc4c3P(C)(C)=O)n2)c(OC)cc1N1CCC2(CC1)CCN(C1CCN(c3cc(F)c([C@H]4CCC(=O)NC4=O)c(F)c3)CC1)CC2 [Example 1]: 89%
4) CCOc1cc(N2CCC(N3CCC4(CC3)CN(c3cc(F)c([C@H]5CCC(=O)NC5=O)c(F)c3)C4)CC2)c(CC)cc1Nc1ncc(Cl)c(Nc2ccc3nc(C)c(F)cc3c2P(C)(C)=O)n1 [Example 57]: 88%
5) CCc1cc(Nc2ncc(Cl)c(Nc3ccc4nc(C)c(F)cc4c3P(C)(C)=O)n2)c(OC)cc1N1CCC(N2CCC(N3CCN(c4cc(F)c([C@H]5CCC(=O)NC5=O)c(F)c4)CC3)CC2)CC1 [Example 12]: 91%

Next:
Entry CCc1cc(Nc2ncc(Br)c(Nc3ccc4nc(C)c(F)cc4c3P(C)(C)=O)n2)c(OC)cc1N1CCC(N2CCC3(CCN(c4cc(F)c([C@H]5CCC(=O)NC5=O)c(F)c4)C3)C2)CC1 (stereo partly drawn) [Example 17] , system EGFR-Del19/T790M/C797S: what Dmax (%) H1975 # 28 DTC was measured?
92%

====

# system.tested: EGFR-L858R/T790M/C797S (Homo sapiens, UniProt P00533, C797S/L858R/T790M)
# Construct: expressed in transfected cells; host or cells: H1975-clone #25 (lentiviral over-expression, endogenous EGFR knocked out)
# measurement.protocol: EGFR degradation HTRF assay in H1975-clone #25 cells
# Type: cell-based
# cond: NCI-H1975, H1975-clone #25 (L858R/T790M/C797S) cells, 16 h treatment, maximum percentage of inhibition (degradation), read-out: Dmax (%) H1975 # 25-LTC
Dmax values, listed per item
// return numeric value only (unit: %, not printed)

1) CCc1ncc2c(P(C)(C)=O)c(Nc3nc(Nc4cc(CC)c(N5CCC(N6CC(CN7CCC(c8cc(F)c([C@H]9CCC(=O)NC9=O)c(F)c8)CC7)C6)CC5)cc4OC)ncc3Br)ccc2n1: 92
2) CCc1cc(Nc2ncc(Br)c(Nc3ccc4nc(C)c(F)cc4c3P(C)(C)=O)n2)c(OC)cc1N1CCC2(CC1)CCN(C1CC(c3cc(F)c([C@H]4CCC(=O)NC4=O)c(F)c3)C1)CC2 (single isomer, unassigned): 92
3) CCOc1cc(N2CCC(N3CCC4(CC3)CN(c3cc(F)c([C@H]5CCC(=O)NC5=O)c(F)c3)C4)CC2)c(CC)cc1Nc1ncc(Cl)c(Nc2ccc3nc(C)c(F)cc3c2P(C)(C)=O)n1: 90

Next:
Look up Dmax: CCOc1cc(N2CCC(N3CC4(CCN(c5cc(F)c([C@H]6CCC(=O)NC6=O)c(F)c5)CC4)C3)CC2)c(CC)cc1Nc1ncc(Cl)c(Nc2ccc3nc(C)c(F)cc3c2P(C)(C)=O)n1
92
